Hey, just so you know, these numbers are from ChEMBL document CHEMBL3734756.

Test system: Leishmania donovani
experiment-summary: Antileishmanial activity against extracellular promastigote stage of Leishmania donovani after 96 hrs by luciferase reporter gene assay
Assay type: functional, organism-based
endpoint-name: IC50 (µM)
Respond numerically; units are µM and should not be typed.

molecule	target-system	IC50, µM
COC(=O)c1cc2c([nH]c3ccccc32)c(C2Nc3ccccc3C(=O)N2c2ccc(Cl)cc2)n1 (configuration not stated)	Leishmania donovani	3.3
CCCCCN1C(=O)c2ccccc2NC1c1nc(C(=O)OC)cc2c1[nH]c1ccccc12 (configuration not stated)	Leishmania donovani	9.9

-- ask Quick check: IC50 of COC(=O)c1cc2c([nH]c3ccccc32)c(C2Nc3ccccc3C(=O)N2Cc2ccc(Cl)c(Cl)c2)n1 (configuration not stated) ?
-- reply 4.8

-- ask Quick check: IC50 of CCCCCCCCCCCCCCCCOP(=O)([O-])OCC[N+](C)(C)C [MILTEFOSINE] ?
-- reply 1.2

-- ask Quick check: IC50 of CCN1C(=O)c2ccccc2NC1c1nc(C(=O)OC)cc2c1[nH]c1ccccc12 (configuration not stated) ?
-- reply 8.5

-- ask Quick check: IC50 of COC(=O)c1cc2c([nH]c3ccccc32)c(C2Nc3ccccc3C(=O)N2Cc2ccc(OC)cc2)n1 (configuration not stated) ?
-- reply 5.4

-- ask Quick check: IC50 of COC(=O)c1cc2c([nH]c3ccccc32)c(C2Nc3ccccc3C(=O)N2c2ccc(F)cc2)n1 (configuration not stated) ?
-- reply 4.6

----------
target-system: Trypanothione reductase (Leishmania donovani) (UniProt P39050)
Sequence (P39050 whole entry): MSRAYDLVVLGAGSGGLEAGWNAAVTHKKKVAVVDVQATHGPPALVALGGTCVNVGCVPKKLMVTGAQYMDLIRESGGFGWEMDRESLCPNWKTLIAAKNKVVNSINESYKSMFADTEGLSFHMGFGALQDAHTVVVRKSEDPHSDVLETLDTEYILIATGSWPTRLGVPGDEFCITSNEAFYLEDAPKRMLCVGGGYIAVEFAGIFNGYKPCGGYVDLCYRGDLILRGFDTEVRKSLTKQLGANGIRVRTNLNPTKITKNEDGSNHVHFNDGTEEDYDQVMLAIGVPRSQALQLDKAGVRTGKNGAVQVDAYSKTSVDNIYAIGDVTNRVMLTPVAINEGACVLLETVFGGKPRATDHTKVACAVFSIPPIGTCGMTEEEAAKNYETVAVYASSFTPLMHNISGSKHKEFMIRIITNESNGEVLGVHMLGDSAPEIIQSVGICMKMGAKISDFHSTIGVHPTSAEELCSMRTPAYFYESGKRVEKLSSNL
experiment-summary: Inhibition of recombinant Leishmania donovani trypanothione reductase expressed in Escherichia coli BL21 (DE3) using trypanothione disulphide as substrate at 100 uM preincubated for 5 mins followed by substrate addition by microplate reader analysis relative to control
endpoint-name: inhibition

# example entries with known answers
molecule	inhibition
COC(=O)c1cc2c([nH]c3ccccc32)c(C2Nc3ccccc3C(=O)N2c2ccc(F)cc2)n1 (stereo not given)	96%
CCN1C(=O)c2ccccc2NC1c1nc(C(=O)OC)cc2c1[nH]c1ccccc12 (stereo not given)	75%
COC(=O)c1cc2c([nH]c3ccccc32)c(C2Nc3ccccc3C(=O)N2Cc2ccc(Cl)c(Cl)c2)n1 (stereo not given)	85%
COC(=O)c1cc2c([nH]c3ccccc32)c(C2Nc3ccccc3C(=O)N2c2ccc(Cl)cc2)n1 (stereo not given)	67%
COC(=O)c1cc2c([nH]c3ccccc32)c(C2Nc3ccccc3C(=O)N2Cc2ccc(OC)cc2)n1 (stereo not given)	60%
CCCN1C(=O)c2ccccc2NC1c1nc(C(=O)OC)cc2c1[nH]c1ccccc12 (stereo not given)	9%
COC(=O)c1cc2c([nH]c3ccccc32)c(C2Nc3ccccc3C(=O)N2c2ccccc2)n1 (stereo not given)	18%
COC(=O)c1cc2c([nH]c3ccccc32)c(C2Nc3ccccc3C(=O)N2Cc2ccccc2)n1 (stereo not given)	11%
CCCCCN1C(=O)c2ccccc2NC1c1nc(C(=O)OC)cc2c1[nH]c1ccccc12 (stereo not given)	99%
COC(=O)c1cc2c([nH]c3ccccc32)c(C2Nc3ccccc3C(=O)N2C2CCCC2)n1 (stereo not given)	30%

-- ask Request - read-out inhibition | tested on Trypanothione reductase (Leishmania donovani) (UniProt P39050) | molecule CCCCN1C(=O)c2ccccc2NC1c1nc(C(=O)OC)cc2c1[nH]c1ccccc12 (stereo not given)
-- reply 35%

----------
target-system: Trypanothione reductase (Leishmania donovani) (UniProt P39050)
experiment-summary: Inhibition of recombinant Leishmania donovani trypanothione reductase expressed in Escherichia coli BL21 (DE3) using trypanothione disulphide as substrate at 50 uM preincubated for 5 mins followed by substrate addition by microplate reader analysis relative to control
Calls of active or inactive are those of the source. No cut-off for these calls is given here.
endpoint-name: inhibition

# example entries with known answers
compound	reported-value
COC(=O)c1cc2c([nH]c3ccccc32)c(C2Nc3ccccc3C(=O)N2Cc2ccc(OC)cc2)n1 (stereo not given)	56%
CCN1C(=O)c2ccccc2NC1c1nc(C(=O)OC)cc2c1[nH]c1ccccc12 (stereo not given)	58%
COC(=O)c1cc2c([nH]c3ccccc32)c(C2Nc3ccccc3C(=O)N2Cc2ccccc2)n1 (stereo not given)	6%
COC(=O)c1cc2c([nH]c3ccccc32)c(C2Nc3ccccc3C(=O)N2c2ccc(F)cc2)n1 (stereo not given)	81%
COC(=O)c1cc2c([nH]c3ccccc32)c(C2Nc3ccccc3C(=O)N2c2ccc(OC)cc2)n1 (stereo not given)	inactive
COC(=O)c1cc2c([nH]c3ccccc32)c(C2Nc3ccccc3C(=O)N2C2CCCC2)n1 (stereo not given)	20%

-- ask Request - read-out inhibition | tested on Trypanothione reductase (Leishmania donovani) (UniProt P39050) | compound COC(=O)c1cc2c([nH]c3ccccc32)c(C2Nc3ccccc3C(=O)N2C2CCCCC2)n1 (stereo not given)
-- reply inactive

-- ask Request - read-out inhibition | tested on Trypanothione reductase (Leishmania donovani) (UniProt P39050) | compound CCCCN1C(=O)c2ccccc2NC1c1nc(C(=O)OC)cc2c1[nH]c1ccccc12 (stereo not given)
-- reply 28%

-- ask Request - read-out inhibition | tested on Trypanothione reductase (Leishmania donovani) (UniProt P39050) | compound COC(=O)c1cc2c([nH]c3ccccc32)c(C2Nc3ccccc3C(=O)N2C2CC2)n1 (stereo not given)
-- reply inactive

-- ask Request - read-out inhibition | tested on Trypanothione reductase (Leishmania donovani) (UniProt P39050) | compound CCCN1C(=O)c2ccccc2NC1c1nc(C(=O)OC)cc2c1[nH]c1ccccc12 (stereo not given)
-- reply 7%

-- ask Request - read-out inhibition | tested on Trypanothione reductase (Leishmania donovani) (UniProt P39050) | compound COC(=O)c1cc2c([nH]c3ccccc32)c(C2Nc3ccccc3C(=O)N2C2CCCCCC2)n1 (stereo not given)
-- reply inactive

-- ask Request - read-out inhibition | tested on Trypanothione reductase (Leishmania donovani) (UniProt P39050) | compound COC(=O)c1cc2c([nH]c3ccccc32)c(C2Nc3ccccc3C(=O)N2c2ccccc2)n1 (stereo not given)
-- reply 16%

-- ask Request - read-out inhibition | tested on Trypanothione reductase (Leishmania donovani) (UniProt P39050) | compound CCCCCN1C(=O)c2ccccc2NC1c1nc(C(=O)OC)cc2c1[nH]c1ccccc12 (stereo not given)
-- reply 90%

-- ask Request - read-out inhibition | tested on Trypanothione reductase (Leishmania donovani) (UniProt P39050) | compound COC(=O)c1cc2c([nH]c3ccccc32)c(C2Nc3ccccc3C(=O)N2c2ccc(Cl)cc2)n1 (stereo not given)
-- reply 64%

-- ask Request - read-out inhibition | tested on Trypanothione reductase (Leishmania donovani) (UniProt P39050) | compound COC(=O)c1cc2c([nH]c3ccccc32)c(C2Nc3ccccc3C(=O)N2Cc2ccc(Cl)c(Cl)c2)n1 (stereo not given)
-- reply 77%

----------
experiment-summary: Cytotoxicity against African green monkey Vero cells assessed as cell viability after 72 hrs by MTT assay
Format: cell-based
protocol-conditions: chlorocebus sabaeus
CC50 at 72 h by entry:
Respond numerically; units are µM and should not be typed.

# example entries with known answers
compound	CC50 at 72 h [µM]
CCCCCCCCCCCCCCCCOP(=O)([O-])OCC[N+](C)(C)C	56.5
COC(=O)c1cc2c([nH]c3ccccc32)c(C2Nc3ccccc3C(=O)N2c2ccc(F)cc2)n1 (stereo not given)	217
COC(=O)c1cc2c([nH]c3ccccc32)c(C2Nc3ccccc3C(=O)N2Cc2ccc(Cl)c(Cl)c2)n1 (stereo not given)	104

-- ask Quick check: CC50 at 72 h of COC(=O)c1cc2c([nH]c3ccccc32)c(C2Nc3ccccc3C(=O)N2Cc2ccc(OC)cc2)n1 (stereo not given) ?
-- reply 106

----------
target-system: Trypanothione reductase (Leishmania donovani) (UniProt P39050)
experiment-summary: Inhibition of recombinant Leishmania donovani trypanothione reductase expressed in Escherichia coli BL21 (DE3) using trypanothione disulphide as substrate at 100 uM preincubated for 5 mins followed by substrate addition by microplate reader analysis relative to control
The source made the active and inactive calls. The calls are words filed in the database; no cut-off is given here.

molecule	target-system	inhibition
COC(=O)c1cc2c([nH]c3ccccc32)c(C2Nc3ccccc3C(=O)N2C2CCCCCC2)n1 (centres undefined)	Trypanothione reductase (Leishmania donovani) (UniProt P39050)	inactive
COC(=O)c1cc2c([nH]c3ccccc32)c(C2Nc3ccccc3C(=O)N2c2ccc(OC)cc2)n1 (centres undefined)	Trypanothione reductase (Leishmania donovani) (UniProt P39050)	inactive
COC(=O)c1cc2c([nH]c3ccccc32)c(C2Nc3ccccc3C(=O)N2C2CC2)n1 (centres undefined)	Trypanothione reductase (Leishmania donovani) (UniProt P39050)	inactive
COC(=O)c1cc2c([nH]c3ccccc32)c(C2Nc3ccccc3C(=O)N2C2CCCCC2)n1 (centres undefined)	Trypanothione reductase (Leishmania donovani) (UniProt P39050)	1%
